MEASUREMENT_NOTES: viability of PTEN-null HCT116 cells – cell-based, HCT116 clonal line, CellTiter-Glo, pilot screen (AID 824);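 note: 0% = 20 µM Hyamine control and 100% = vehicle cell control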
CONDITION_SET: HCT116 PTEN-deleted viability, 60 h, at 10 µM, stronger effect = lower value
Records with an inconclusive call do not appear.
hey, just use t if measured viability is less than 90%, otherwise f

COc1ccccc1S(=O)(=O)Cc1ccc(C(=O)N2CCOCC2)o1
f
CC(C)Sc1nc2c(c(=O)n1-c1ccc(F)cc1)SCC2
t

In: Given `O=C(Cn1ncc2c(=O)oc3ccccc3c21)NCCCN1CCCC1=O` , is recorded viability strictly lower than 90%?
Out: f

---

MEASUREMENT_NOTES: yeast transport mutant growth inhibition pilot in 384-well plates, post-Golgi transport modulator project (AID 636)
CONDITION_SET: absorbance 615 nm, about 18 h, stronger effect = higher value
QUANTITY: inhibition (%)
Answer format: numeric, % implied, no suffix.

COc1cccc2cc(C(=O)OC3CCN(C)CC3)c(=O)oc12
-3.08

Field inhibition (entry CCOc1ccccc1NC(=O)C1CCCN(S(=O)(=O)c2cccc3cccnc23)C1 (stereo not given) ) reads -6.13

// CCc1ccccc1N1CC23C=CC(O2)C(C(=O)O)C3C1=O (stereo not given) : inhibition value = -7.2

For this compound ( `c1ccc(-c2nnc(SCc3nc4ccccc4[nH]3)o2)cc1` ), measured inhibition is -5.6

inhibition for `O=C(c1ccc(Br)cc1)N1CCN(S(=O)(=O)c2ccccc2)CC1` is 3.33

Lab book: inhibition of `CC(C)c1ccc(NC(=O)CCNS(=O)(=O)c2cccc3nonc23)cc1` noted as -8.9

// sample `CC(C)Sc1nc2c(c(=O)n1-c1ccc(F)cc1)SCC2` , its inhibition was -4.27

inhibition reported for this compound `Cc1ccc(C(=O)Nc2c(C(=O)N3CCOCC3)cnn2-c2ccccc2)cc1` : -4.27

Memo: `COC(=O)c1cn(NC(=O)c2cccnc2)c(=O)c2ccccc12` , reported inhibition: -7.26

Note to self: inhibition recorded for `Cc1ccccc1-c1nc(CN2CCC(C(=O)N3CCC(C(N)=O)CC3)CC2)c(C)o1` was -5.73

S=c1[nH]nc(-c2ccccc2)n1C1C=CCCC1 (stereo not given) yielded inhibition of 1.56

// `O=C(/C=C/N1CCOCC1)c1ccc(-c2ccccc2)cc1` : inhibition value = -5.07

// recorded inhibition for COC(=O)CSC1=C(C#N)C(c2ccc(F)cc2)CC(=O)N1 (stereo not given) : -4.93

For reference, reported inhibition for `CC(C)(C)SCCNC(=O)CSc1ccccc1` stands at -6.22

compound `CCOC(=O)Cn1c(CCC(=O)O)ccc1-c1ccc(F)cc1` , inhibition observed: -5.6

For this compound ( `CN1CCN(c2nc3c(c(=O)[nH]c(=O)n3C)n2CCSc2nc3ccccc3s2)CC1` ), measured inhibition is -0.51

Measured inhibition of `O=c1cc(-c2ccco2)oc2ccc(Cl)cc12` : -2.6

Just so you know, measured inhibition for CC(CC(=O)NC1CCSC1=O)c1ccccc1 (stereo not given) came out at -4.32

Briefly, inhibition measured for CCOC(=O)CN1CC23C=CC(O2)C(C(=O)Nc2ccc(OCC)cc2)C3C1=O (stereo not given) : -4.53

The reported value for `CCCc1cc(=O)oc2cc(C)cc(OC(=O)c3ccco3)c12` in terms of inhibition is -6.93
